EC50 listing for selected compounds.
Biological target: FSHR (Homo sapiens)
Construct: expressed in transfected cells; host or cells: CHO (Cho-FSHR-LUC-1-1-43)
Sequence (P23945 18-695): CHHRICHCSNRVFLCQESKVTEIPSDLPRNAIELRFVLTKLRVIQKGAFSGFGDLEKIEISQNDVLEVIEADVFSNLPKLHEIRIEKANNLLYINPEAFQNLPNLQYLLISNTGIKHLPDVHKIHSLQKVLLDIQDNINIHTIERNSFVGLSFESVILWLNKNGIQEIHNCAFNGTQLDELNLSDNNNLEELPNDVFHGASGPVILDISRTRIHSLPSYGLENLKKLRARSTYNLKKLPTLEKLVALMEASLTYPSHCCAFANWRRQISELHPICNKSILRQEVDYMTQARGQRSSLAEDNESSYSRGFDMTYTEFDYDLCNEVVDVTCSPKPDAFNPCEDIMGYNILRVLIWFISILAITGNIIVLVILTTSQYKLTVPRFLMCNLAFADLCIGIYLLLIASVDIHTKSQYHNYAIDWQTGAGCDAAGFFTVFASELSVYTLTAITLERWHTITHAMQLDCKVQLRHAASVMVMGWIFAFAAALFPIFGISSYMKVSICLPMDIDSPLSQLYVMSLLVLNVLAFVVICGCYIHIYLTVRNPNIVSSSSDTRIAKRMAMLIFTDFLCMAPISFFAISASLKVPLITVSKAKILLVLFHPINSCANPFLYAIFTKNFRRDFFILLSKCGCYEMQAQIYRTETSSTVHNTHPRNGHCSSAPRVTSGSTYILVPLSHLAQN
Experiment: EC50 of cyclic AMP production in CHO FSHR cells + EC20 FSH (Assay A)
Assay type: cell-based
Details: CHO FSHR cells + EC20 FSH, cAMP HTRF; read-out: Assay A: EC50 of cyclic AMP production
Procedure: EC50 of Cyclic AMP Production in CHO FSHR Cells+EC20 FSH (Assay A) 2500 Cho-FSHR-LUC-1-1-43 cells were plated per well in 5 μl of phenol red free DMEM/F12+1% FBS. Cells were plated in 384 well, solid white low volume plates (Greiner 784075) by Multidrop. […] The plates were read on Envision using the cAMP HTRF—low volume 384 well protocol. The readout was the calculated fluorescence ratio (665 nm/620 nm). […]

COC/C=C/c1cc2c(cc1OC)OCc1c(C(=O)N(C)C(C)(C)C)nn(-c3ccsc3)c1-2 = < 100 nM
[2H]C([2H])([2H])OCC1(N(C(=O)c2nn(-c3ccsc3)c3c2COc2cc(OC)c(-c4ccn(C)c4)cc2-3)C([2H])([2H])[2H])COC1 = < 100 nM
COc1cc2c(cc1C=C(C)C)-c1c(c(C(=O)N3CCCC(C(=O)N(C)C)CC3)nn1-c1ccsc1)CO2 (stereo not shown) = 100 to 1000 nM

Next:
Asked: EC50 lookup needed for COc1cc2c(cc1C=C(C)C)-c1c(c(C(=O)N3CCCC(N)CC3)nn1-c1ccsc1)CO2 (stereo not shown) , thanks.
Given back: 100 to 1000 nM

The measurements presented in this section are drawn from patent US11365199B2.
